Target: glucocerebrosidase (Gcase) (Homo sapiens)
Construct: micellar solution containing 10 nM GCase and 100 nM saposin C
Sequence (P04062 40-536): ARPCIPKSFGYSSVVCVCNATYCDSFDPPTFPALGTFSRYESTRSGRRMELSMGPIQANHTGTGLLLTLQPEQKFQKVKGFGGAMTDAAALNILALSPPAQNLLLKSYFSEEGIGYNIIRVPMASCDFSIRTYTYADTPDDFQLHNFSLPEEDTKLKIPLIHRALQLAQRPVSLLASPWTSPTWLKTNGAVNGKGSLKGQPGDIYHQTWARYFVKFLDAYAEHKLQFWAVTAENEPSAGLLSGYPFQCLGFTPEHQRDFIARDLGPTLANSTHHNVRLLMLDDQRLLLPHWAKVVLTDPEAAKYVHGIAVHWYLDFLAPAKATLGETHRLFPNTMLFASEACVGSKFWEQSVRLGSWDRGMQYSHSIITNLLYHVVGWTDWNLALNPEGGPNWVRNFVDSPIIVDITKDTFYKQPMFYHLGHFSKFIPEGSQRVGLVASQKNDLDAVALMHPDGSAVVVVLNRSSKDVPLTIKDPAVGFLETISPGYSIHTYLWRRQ
Test: Glucocerebrosidase (Gcase) activation assay, 4-methylumbelliferyl-beta-D-glucopyranoside substrate, fluorescence readout
Format: biochemical
Settings: test compound at 1.0 μM; read-out: Percent Gcase Activation, 1 μM Test Compound
Quantity Name: activation at 1 µM

So for COCc1cc(C2CC2)nc2c(C(=O)NC3(C)CCOc4cc(F)c(F)cc43)ccn12 (stereo not drawn) [III-266] , the logged activation at 1 µM turned out to be > 60%

Form field activation at 1 µM, entry Cc1cc(C)n2ccc(C(=O)NC3CCCCC34CCOCC4)c2n1 (stereo not drawn) [III-184] : > 60%

Item: Cc1cc(C)n2ccc(C(=O)NC3CC=C(CCCO)c4ccccc43)c2n1 (stereo not drawn) [III-144] | activation at 1 µM: > 60%

// recorded activation at 1 µM for Cc1cc(C)n2ccc(C(=O)NC(C)(C)c3ccccc3Cl)c2n1 [III-79] : > 60%

Given item CCCCO[C@H]1CC[C@H](NC(=O)c2ccn3c(COC)cc(C4CC4)nc23)CC1 [III-268] , the value recorded as its activation at 1 µM is > 60%

Value of measured activation at 1 µM for the entry CCCCO[C@H]1CC2CCC(C1)[C@H]2NC(=O)c1ccn2c(C)cc(C)nc12 [III-182] : > 60%

Given item CCCO[C@H]1CC[C@H](NC(=O)c2ccn3c(C)cc(C)nc23)CC1 [III-290] , the value recorded as its activation at 1 µM is > 60%

The compound listed as C#Cc1ccc(NC(=O)c2ccn3c(C)cc(C)nc23)c(CO)c1 [III-213] shows activation at 1 µM equal to < 30%

Record CCCCCO[C@H]1CC[C@H](NC(=O)c2ccn3c(C(F)F)cc(C(F)F)nc23)CC1 [III-25] . Reported activation at 1 µM: > 60%

Record Cc1cc(C)n2ccc(C(=O)NC3CCc4nc(C)oc4C3)c2n1 (stereo not drawn) [III-284] . Reported activation at 1 µM: < 30%

Cc1cc(C)n2ccc(C(=O)N[C@@H]3CCc4ccccc43)c2n1 [III-218] yielded activation at 1 µM of > 60%

Record COCc1cc(C)n2ccc(C(=O)Nc3ccc(-c4cocn4)cc3)c2n1 [III-50] , field activation at 1 µM: > 60%

// activation at 1 µM value for Cc1cc(C(F)(F)F)nc2c(C(=O)NC3(C)CCCc4ncncc43)ccn12 (stereo not drawn) [III-250] : < 30%

// [2H]c1c(C([2H])([2H])[2H])nc2c(C(=O)Nc3ccc(-c4cocn4)cc3)cc([2H])n2c1C([2H])([2H])[2H] [III-158] : activation at 1 µM value = > 60%

Lab note: measured activation at 1 µM of CCCCO[C@H]1C2CCC1C[C@@H](NC(=O)c1ccn3c(C)cc(C)nc13)C2 [III-185] was > 60%

Entry under test: Cc1cc(C(F)F)n2ccc(C(=O)Nc3ccc(-c4cocn4)cc3)c2n1 [III-27] . Its activation at 1 µM was 30 to 60%

Memo: Cc1cc(C)n2ccc(C(=O)NC3CCOc4ccc(F)c(F)c43)c2n1 (stereo not drawn) [III-172] , reported activation at 1 µM: > 60%

activation at 1 µM reading for Cc1cc(C)n2ccc(C(=O)NC3(C)CCOc4ccccc43)c2n1 (stereo not drawn) [III-181] : > 60%
